- Test target: Melanocortin receptor 5 (Mus musculus, UniProt P41149)
- Sequence (P41149 whole entry): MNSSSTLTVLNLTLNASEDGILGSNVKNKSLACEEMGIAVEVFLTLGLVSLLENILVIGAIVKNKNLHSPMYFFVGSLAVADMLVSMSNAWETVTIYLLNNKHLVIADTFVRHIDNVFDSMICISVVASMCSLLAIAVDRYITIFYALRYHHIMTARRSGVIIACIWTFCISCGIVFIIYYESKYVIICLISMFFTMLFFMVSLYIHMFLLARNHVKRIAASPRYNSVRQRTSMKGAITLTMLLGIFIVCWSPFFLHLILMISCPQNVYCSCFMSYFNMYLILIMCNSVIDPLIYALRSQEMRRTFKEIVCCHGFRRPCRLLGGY
- Method: Agonist activity at mouse MC5R expressed in HEK293 cells
pEC50: −log10 of the molar value. Numbered stars: 1 amine (or outer) side, 2 acyl side, 3 side chain; on linkers, the order of the positions; unused ones are H or OH. Bridge positions count the residues as written; N and C are the ends. Square brackets hold non-standard residues; d marks the D form. Peptide text beside a SMILES is read from it. NGly(3-aminopropyl) = O=C(CN(CCCN[*:3])[*:1])[*:2]; Adipoyl = O=C(CCCCC(=O)[*:2])[*:1]; Suc = O=C(CCC(=O)[*:2])[*:1]
Response key: true (1) means pEC50 >= 8; false (0) means pEC50 < 8.

Can N=C(N)NCCC[C@@H]1NC(=O)[C@@H](Cc2ccccc2)NC(=O)[C@H](Cc2ccccc2)NC(=O)CCC(=O)NCCCN(CC(N)=O)C(=O)[C@H](Cc2c[nH]c3ccccc23)NC1=O (F[dF]RW[NGly(3-aminopropyl)]-NH2; linker N-5 via Suc) be said to have pEC50 at or above 8? true (1)

What do we get for `N=C(N)NCCC[C@@H]1NC(=O)[C@@H](Cc2ccccc2)NC(=O)[C@H](Cc2ccccc2)NC(=O)CCCC(=O)NCCN(CC(N)=O)C(=O)[C@H](Cc2c[nH]c3ccccc23)NC1=O` ? false (0)

Entry to check: N=C(N)NCCC[C@@H]1NC(=O)[C@@H](Cc2ccccc2)NC(=O)[C@H](Cc2ccccc2)NC(=O)CCCCC(=O)NCCCN(CC(N)=O)C(=O)[C@H](Cc2c[nH]c3ccccc23)NC1=O (F[dF]RW[NGly(3-aminopropyl)]-NH2; linker N-5 via Adipoyl) false (0)

And then `N=C(N)NCCC[C@@H]1NC(=O)[C@@H](Cc2ccccc2)NC(=O)[C@H](Cc2ccccc2)NC(=O)c2ccccc2C(=O)NCCN(CC(N)=O)C(=O)[C@H](Cc2c[nH]c3ccccc23)NC1=O` , what is it? false (0)
